- PROTOCOL_DETAILS: Determination of bioavailability (BA) in mouse
- Format: in vivo
- CONDITIONS_USED: fasted male ICR mice; oral 10 mg/kg vs intravenous 3 mg/kg; from plasma AUC
PROPERTY_LABEL: Mouse BA
Dear colleague, please send the value followed by its unit.

Below: 5 compounds and their reported Mouse BA.
CC(=N)N1CCC(CN(C)Cc2cc(C(=O)O)cc(-c3cccc(C(=N)N)c3)c2)CC1    13%
CC(=N)N1CCC(COCc2cc(CCC(=O)O)cc(-c3cccc(C(=N)N)c3)c2)CC1    11%
CC(=N)N1CCC(CN(CCO)Cc2cc(C(=O)O)cc(-c3cccc(C(=N)N)c3)c2)CC1    7%
CC(=N)N1CCC(CNCc2cc(C(=O)O)cc(-c3cccc(C(=N)N)c3)c2)CC1    11%
N=C(N)c1cccc(-c2cc(CNCC3CCN(CCO)CC3)cc(C(=O)O)c2)c1    13%

Field: next compound
IN: Recorded Mouse BA for CC(=N)N1CCC(COCc2cc(C(=O)O)cc(-c3cccc(C(=N)N)c3)c2)CC1 , please?
OUT: 10%

Provenance of the data: patent US6706745B1
